- target system: Relaxin-3 receptor 2 (Homo sapiens, UniProt Q8TDU9)
- Sequence (Q8TDU9 whole entry): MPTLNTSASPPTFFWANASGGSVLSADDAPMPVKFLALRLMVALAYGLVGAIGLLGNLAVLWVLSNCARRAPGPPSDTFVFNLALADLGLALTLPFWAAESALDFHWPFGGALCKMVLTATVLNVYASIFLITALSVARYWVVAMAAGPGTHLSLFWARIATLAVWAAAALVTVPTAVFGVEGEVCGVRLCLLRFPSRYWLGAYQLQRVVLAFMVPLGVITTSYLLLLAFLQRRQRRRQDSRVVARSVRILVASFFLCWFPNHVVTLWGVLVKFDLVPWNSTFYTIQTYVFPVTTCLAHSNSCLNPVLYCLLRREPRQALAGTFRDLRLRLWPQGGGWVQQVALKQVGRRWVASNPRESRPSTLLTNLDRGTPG
- experimental protocol: Agonist activity at human RXFP4 receptor expressed in CHOK1 cells cotransfected with beta-galactosidase assessed as inhibition of forskolin-stimulated cAMP by beta-galactosidase reporter gene assay
- Format: functional, cell-based
Where a SMILES comes first, the peptide text is derived from it. Bridges are numbered along the chain shown (N, C = ends). [ ]: non-standard residue; d: D form. hCys = N[C@@H](CCS)C(=O)O
measure: pEC50
pEC50 field: float, defined as -log10 of concentration (mol/L).

Ask | Find the measured pEC50 of CC[C@H](C)[C@@H]1NC(=O)[C@H](Cc2ccccc2)NC(=O)[C@@H](NC(=O)[C@H](CCCNC(=N)N)NC(=O)CNC(=O)[C@H](CO)NC(C)=O)CCSSCC[C@@H](C(=O)N[C@H](C(=O)N[C@H](C(=O)N[C@@H](Cc2ccccc2)C(=O)N[C@H](C(=O)N[C@@H](CO)C(=O)NCC(=O)NCC(=O)N[C@@H](CO)C(=O)N[C@@H](CCCNC(=N)N)C(=O)N[C@@H](Cc2c[nH]c3ccccc23)C(=O)O)[C@@H](C)O)[C@@H](C)CC)C(C)C)NC(=O)[C@H](CCCNC(=N)N)NC1=O (Ac-SGR[hCys]FIR[hCys]VIFTSGGSRW-OH; disulfide 4-8) with Relaxin-3 receptor 2 (Homo sapiens, UniProt Q8TDU9) as test system.
Reply | 5.43

---

- target system: Relaxin receptor 1 (Homo sapiens)
- experimental protocol: Agonist activity at RXFP1 receptor (unknown origin) expressed in HEK-293T cells cotransfected with beta-galactosidase assessed as cAMP activation at 10 uM by beta-galactosidase reporter gene assay
- Assay type: functional, cell-based
Calls of active or inactive are those of the source. The calls are words filed in the database; no cut-off is given here. Where a SMILES comes first, the peptide text is derived from it. Bridges are numbered along the chain shown (N, C = ends). [ ]: non-standard residue; d: D form. S5 = C=CCCC[C@](C)(N)C(=O)O
measure: Activity

# annotated cases, reported Activity shown
Ask | Output measured Activity for this item: CC[C@H](C)[C@@H]1NC(=O)[C@H](Cc2ccccc2)NC(=O)[C@@](C)(NC(=O)[C@H](CCCNC(=N)N)NC(=O)CNC(=O)[C@H](CO)NC(C)=O)CCC/C=C/CCC[C@@](C)(C(=O)N[C@H](C(=O)N[C@H](C(=O)N[C@@H](Cc2ccccc2)C(=O)N[C@H](C(=O)N[C@@H](CO)C(=O)NCC(=O)NCC(=O)N[C@@H](CO)C(=O)N[C@@H](CCCNC(=N)N)C(=O)N[C@@H](Cc2c[nH]c3ccccc23)C(=O)O)[C@@H](C)O)[C@@H](C)CC)C(C)C)NC(=O)[C@H](CCCNC(=N)N)NC1=O (Ac-SGR[S5]FIR[S5]VIFTSGGSRW-OH; staple (E) 4-8)
Reply | inactive

Ask | Answer with the recorded Activity of CC[C@H](C)[C@H](NC(=O)[C@H](Cc1ccccc1)NC(=O)[C@H](CCC(=O)O)NC(=O)[C@H](CCCNC(=N)N)NC(=O)CNC(=O)[C@H](CO)NC(C)=O)C(=O)N[C@@H](CCCNC(=N)N)C(=O)N[C@@H](C)C(=O)N[C@H](C(=O)N[C@H](C(=O)N[C@@H](Cc1ccccc1)C(=O)N[C@H](C(=O)N[C@@H](CO)C(=O)NCC(=O)NCC(=O)N[C@@H](CO)C(=O)N[C@@H](CCCNC(=N)N)C(=O)N[C@@H](Cc1c[nH]c2ccccc12)C(=O)O)[C@@H](C)O)[C@@H](C)CC)C(C)C (Ac-SGREFIRAVIFTSGGSRW-OH) only.
Reply | inactive

Ask | Indicate the recorded Activity value for this molecule: CC[C@H](C)[C@@H]1NC(=O)[C@H](Cc2ccccc2)NC(=O)[C@@](C)(NC(=O)[C@H](CCCNC(=N)N)NC(=O)CNC(=O)[C@@H](N)CO)CCC/C=C/CCC[C@@](C)(C(=O)N[C@H](C(=O)N[C@H](C(=O)N[C@@H](Cc2ccccc2)C(=O)N[C@H](C(=O)N[C@@H](CO)C(=O)NCC(=O)NCC(=O)N[C@@H](CO)C(=O)N[C@@H](CCCNC(=N)N)C(=O)N[C@@H](Cc2c[nH]c3ccccc23)C(=O)O)[C@@H](C)O)[C@@H](C)CC)C(C)C)NC(=O)[C@H](CCCNC(=N)N)NC1=O (H-SGR[S5]FIR[S5]VIFTSGGSRW-OH; staple (E) 4-8)
Reply | inactive

Ask | Give a short answer stating reported Activity for CC[C@H](C)[C@H](NC(=O)[C@H](Cc1ccccc1)NC(=O)[C@H](CCC(=O)O)NC(=O)[C@H](CCCNC(=N)N)NC(=O)CNC(=O)[C@H](CO)NC(C)=O)C(=O)N[C@@H](CCCNC(=N)N)C(=O)N[C@@H](CCCCN)C(=O)N[C@H](C(=O)N[C@H](C(=O)N[C@@H](Cc1ccccc1)C(=O)N[C@H](C(=O)N[C@@H](CO)C(=O)NCC(=O)NCC(=O)N[C@@H](CO)C(=O)N[C@@H](CCCNC(=N)N)C(=O)N[C@@H](Cc1c[nH]c2ccccc12)C(=O)O)[C@@H](C)O)[C@@H](C)CC)C(C)C (Ac-SGREFIRKVIFTSGGSRW-OH) .
Reply | inactive

---
Ask | Tell me measured Activity for CC[C@H](C)[C@@H]1NC(=O)[C@H](Cc2ccccc2)NC(=O)[C@@H](NC(=O)[C@H](CCCNC(=N)N)NC(=O)CNC(=O)[C@H](CO)NC(C)=O)CCC(=O)NCCCC[C@@H](C(=O)N[C@H](C(=O)N[C@H](C(=O)N[C@@H](Cc2ccccc2)C(=O)N[C@H](C(=O)N[C@@H](CO)C(=O)NCC(=O)NCC(=O)N[C@@H](CO)C(=O)N[C@@H](CCCNC(=N)N)C(=O)N[C@@H](Cc2c[nH]c3ccccc23)C(=O)O)[C@@H](C)O)[C@@H](C)CC)C(C)C)NC(=O)[C@H](CCCNC(=N)N)NC1=O (Ac-SGREFIRKVIFTSGGSRW-OH; lactam 4-8) please.
Reply | inactive

---

- target system: UniProtKB Q8TDU9
- experimental protocol: Displacement of Eu-INSL5 from human RXFP4 receptor expressed in CHOK1 cells by time-resolved fluorescent whole cell binding assay
pKi: −log10 of the molar value. Where a SMILES comes first, the peptide text is derived from it.
measure: pKi

Ask | Identify measured pKi associated with CC[C@H](C)[C@H](NC(=O)[C@H](Cc1ccccc1)NC(=O)[C@H](CCC(=O)O)NC(=O)[C@H](CCCNC(=N)N)NC(=O)CNC(=O)[C@H](CO)NC(C)=O)C(=O)N[C@@H](CCCNC(=N)N)C(=O)N[C@@H](C)C(=O)N[C@H](C(=O)N[C@H](C(=O)N[C@@H](Cc1ccccc1)C(=O)N[C@H](C(=O)N[C@@H](CO)C(=O)NCC(=O)NCC(=O)N[C@@H](CO)C(=O)N[C@@H](CCCNC(=N)N)C(=O)N[C@@H](Cc1c[nH]c2ccccc12)C(=O)O)[C@@H](C)O)[C@@H](C)CC)C(C)C (Ac-SGREFIRAVIFTSGGSRW-OH)
Reply | < 5.00

---

For each entry below, report its EC50 value.
- target system: UniProt Q9NSD7
- Sequence (Q9NSD7 whole entry): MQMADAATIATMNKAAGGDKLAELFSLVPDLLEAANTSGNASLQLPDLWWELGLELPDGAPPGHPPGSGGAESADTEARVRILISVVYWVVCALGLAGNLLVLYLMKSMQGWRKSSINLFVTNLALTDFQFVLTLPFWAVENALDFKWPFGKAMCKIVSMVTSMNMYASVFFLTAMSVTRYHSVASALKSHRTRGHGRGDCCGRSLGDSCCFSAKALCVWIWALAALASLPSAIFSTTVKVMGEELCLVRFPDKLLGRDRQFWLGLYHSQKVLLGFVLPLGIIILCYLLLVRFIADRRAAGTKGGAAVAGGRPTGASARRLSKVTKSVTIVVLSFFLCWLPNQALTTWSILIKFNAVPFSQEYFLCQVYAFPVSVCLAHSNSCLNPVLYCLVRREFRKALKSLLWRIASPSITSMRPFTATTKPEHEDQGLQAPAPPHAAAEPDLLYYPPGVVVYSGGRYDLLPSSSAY
- experimental protocol: Agonist activity at human RXFP3 receptor expressed in CHOK1 cells cotransfected with beta-galactosidase assessed as inhibition of forskolin-stimulated cAMP by beta-galactosidase reporter gene assay
- Format: functional, cell-based
Where a SMILES comes first, the peptide text is derived from it. Bridges are numbered along the chain shown (N, C = ends). [ ]: non-standard residue; d: D form. hCys = N[C@@H](CCS)C(=O)O

Ask | Give the reported value of EC50 for this record: CC[C@H](C)[C@@H]1NC(=O)[C@H](Cc2ccccc2)NC(=O)[C@@H](NC(=O)[C@H](CCCNC(=N)N)NC(=O)CNC(=O)[C@H](CO)NC(C)=O)CCC(=O)NCCCC[C@@H](C(=O)N[C@H](C(=O)N[C@H](C(=O)N[C@@H](Cc2ccccc2)C(=O)N[C@H](C(=O)N[C@@H](CO)C(=O)NCC(=O)NCC(=O)N[C@@H](CO)C(=O)N[C@@H](CCCNC(=N)N)C(=O)N[C@@H](Cc2c[nH]c3ccccc23)C(=O)O)[C@@H](C)O)[C@@H](C)CC)C(C)C)NC(=O)[C@H](CCCNC(=N)N)NC1=O (Ac-SGREFIRKVIFTSGGSRW-OH; lactam 4-8)
Reply | > 1 µM

Ask | Give the value of EC50 reported for the following: CC[C@H](C)[C@H](NC(=O)[C@H](Cc1ccccc1)NC(=O)[C@H](CCC(=O)O)NC(=O)[C@H](CCCNC(=N)N)NC(=O)CNC(=O)[C@H](CO)NC(C)=O)C(=O)N[C@@H](CCCNC(=N)N)C(=O)N[C@@H](CCCCN)C(=O)N[C@H](C(=O)N[C@H](C(=O)N[C@@H](Cc1ccccc1)C(=O)N[C@H](C(=O)N[C@@H](CO)C(=O)NCC(=O)NCC(=O)N[C@@H](CO)C(=O)N[C@@H](CCCNC(=N)N)C(=O)N[C@@H](Cc1c[nH]c2ccccc12)C(=O)O)[C@@H](C)O)[C@@H](C)CC)C(C)C (Ac-SGREFIRKVIFTSGGSRW-OH)
Reply | 4.57 µM

Ask | Look up and state reported EC50 for CC[C@H](C)[C@@H]1NC(=O)[C@H](Cc2ccccc2)NC(=O)[C@@H](NC(=O)[C@H](CCCNC(=N)N)NC(=O)CNC(=O)[C@H](CO)NC(C)=O)CCSSCC[C@@H](C(=O)N[C@H](C(=O)N[C@H](C(=O)N[C@@H](Cc2ccccc2)C(=O)N[C@H](C(=O)N[C@@H](CO)C(=O)NCC(=O)NCC(=O)N[C@@H](CO)C(=O)N[C@@H](CCCNC(=N)N)C(=O)N[C@@H](Cc2c[nH]c3ccccc23)C(=O)O)[C@@H](C)O)[C@@H](C)CC)C(C)C)NC(=O)[C@H](CCCNC(=N)N)NC1=O (Ac-SGR[hCys]FIR[hCys]VIFTSGGSRW-OH; disulfide 4-8)
Reply | > 10 µM
